Target: B-Raf (Homo sapiens, UniProt P15056)
Sequence (P15056 whole entry): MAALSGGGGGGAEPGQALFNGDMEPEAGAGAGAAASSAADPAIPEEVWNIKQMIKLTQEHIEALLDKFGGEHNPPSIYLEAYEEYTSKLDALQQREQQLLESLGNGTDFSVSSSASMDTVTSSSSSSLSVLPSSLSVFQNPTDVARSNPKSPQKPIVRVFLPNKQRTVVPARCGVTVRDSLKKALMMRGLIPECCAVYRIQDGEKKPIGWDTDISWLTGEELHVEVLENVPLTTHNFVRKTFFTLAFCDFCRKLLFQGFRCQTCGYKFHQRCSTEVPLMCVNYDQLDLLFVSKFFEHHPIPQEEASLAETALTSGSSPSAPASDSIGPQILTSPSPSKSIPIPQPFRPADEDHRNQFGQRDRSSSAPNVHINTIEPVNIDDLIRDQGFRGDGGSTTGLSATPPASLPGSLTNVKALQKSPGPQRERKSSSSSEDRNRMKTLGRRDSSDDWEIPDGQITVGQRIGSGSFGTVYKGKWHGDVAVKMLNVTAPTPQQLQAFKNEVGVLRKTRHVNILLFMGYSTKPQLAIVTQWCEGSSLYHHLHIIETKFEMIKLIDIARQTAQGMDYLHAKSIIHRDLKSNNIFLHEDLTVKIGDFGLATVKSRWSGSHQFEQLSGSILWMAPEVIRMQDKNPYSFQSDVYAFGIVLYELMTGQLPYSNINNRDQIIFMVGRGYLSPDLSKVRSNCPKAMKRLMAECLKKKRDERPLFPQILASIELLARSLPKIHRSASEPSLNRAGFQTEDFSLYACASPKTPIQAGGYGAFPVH
Experiment Notes: In vitro kinase assay, B-Raf
Format: biochemical
Assay Conditions: in vitro kinase profile, 1 μM
Experimental Readout: B-Raf (Raf) inhibition, in words

[[record]]
compound = "CC(C)n1nc(-c2ccc(NC(=O)Nc3ccc(Cl)c(C(F)(F)F)c3)cc2)c2c(N)ncnc21 [AD81]"
experimental_readout = "B-Raf (Raf) inhibition, in words"
result = "inhibited"

[[record]]
compound = "CC(C)n1nc(-c2ccc(NC(=O)Nc3cc(C(F)(F)F)ccc3F)cc2)c2c(N)ncnc21 [AD80]"
experimental_readout = "B-Raf (Raf) inhibition, in words"
result = "inhibited"


* * *

Target: S6K (Homo sapiens)
Sequence (P23443 whole entry): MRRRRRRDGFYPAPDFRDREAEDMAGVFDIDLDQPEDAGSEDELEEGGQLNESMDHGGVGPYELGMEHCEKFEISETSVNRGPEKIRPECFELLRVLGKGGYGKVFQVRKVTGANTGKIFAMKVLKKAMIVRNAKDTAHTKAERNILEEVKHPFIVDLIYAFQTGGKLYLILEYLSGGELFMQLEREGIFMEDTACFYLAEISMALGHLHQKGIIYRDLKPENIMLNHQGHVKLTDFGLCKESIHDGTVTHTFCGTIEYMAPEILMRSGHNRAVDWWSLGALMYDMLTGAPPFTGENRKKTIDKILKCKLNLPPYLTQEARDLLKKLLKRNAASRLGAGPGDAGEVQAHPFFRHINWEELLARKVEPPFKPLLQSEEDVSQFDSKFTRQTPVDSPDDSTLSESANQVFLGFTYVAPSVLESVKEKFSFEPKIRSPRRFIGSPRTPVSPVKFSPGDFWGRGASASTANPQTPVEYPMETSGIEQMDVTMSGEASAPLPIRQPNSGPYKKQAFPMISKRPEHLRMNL
Experiment Notes: In vitro kinase assay, S6K
Assay type: biochemical
Assay Conditions: in vitro kinase profile, 1 μM
Experimental Readout: S6K inhibition, in words

[[record]]
compound = "CC(C)n1nc(-c2ccc(NC(=O)Nc3ccc(Cl)c(C(F)(F)F)c3)cc2)c2c(N)ncnc21 [AD81]"
result = "inhibited"

[[record]]
compound = "CC(C)n1nc(-c2ccc(NC(=O)Nc3cc(C(F)(F)F)ccc3F)cc2)c2c(N)ncnc21 [AD80]"
result = "inhibited"


Origin of values: patent US9321772B2
